Species: Rattus norvegicus
assayComment: Open TG-GATES - Regimen: Daily Repeat
Format: toxicity, organism-based, Sprague-Dawley
Design: regimen Daily Repeat, gender Male, age 6 weeks
testConditions: in vivo, po, 1000 mg/kg, […], tissue Blood, route gavage, dose level High, time 14 day
quantityMeasured: MCH
Give the value; after it, write the unit.

{"compound": "CC(S)C(=O)NCC(=O)O (centres undefined)", "MCH": "20.8 pg"}
{"compound": "CC(=O)[C@@]1(O)CC[C@H]2[C@@H]3C=C(Cl)C4=CC(=O)CC[C@]4(C)[C@H]3CC[C@@]21C", "MCH": "19.7 pg"}
{"compound": "CCCCNC(=O)NS(=O)(=O)c1ccc(C)cc1 [TOLBUTAMIDE]", "MCH": "19.3 pg"}

Read the next record carefully.
The recorded MCH for entry `O=C(O)c1ccccc1Nc1ccccc1` equals 21.1 pg
